Below, each entry is listed with its recorded MFI.
Substrate: ICOS (Homo sapiens (Human)) (UniProt Q9Y6W8)
Sequence (Q9Y6W8 21-199 limits assumed): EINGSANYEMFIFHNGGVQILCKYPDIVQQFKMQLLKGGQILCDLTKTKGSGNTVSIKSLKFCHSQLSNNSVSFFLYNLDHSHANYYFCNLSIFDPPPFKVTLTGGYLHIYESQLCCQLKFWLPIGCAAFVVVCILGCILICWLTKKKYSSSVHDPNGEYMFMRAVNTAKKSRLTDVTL
ASSAY INFO: flow cytometry, transfected cells
Supply the numeric figure in MFI, leaving out any unit text.

1) ICOSL-Fc N52R/N57L/Q100A (Fc fusion) DTQEKEVRAMVGSDVELSCACPEGSRFDLNDVYVYWQTSESKTVVTYHIPQRSSLELVDSRYRNRALMSPAGMLRGDFSLRLFNVTPQDEQKFHCLVLSASLGFQEVLSVEVTLHVAANFSVPVVSAPHSPSQDELTFTCTSINGYPRPNVYWINKTDNSLLDQALQNDTVFLNMRGLYDVVSVLRIARTPSVNIGCCIENVLLQQNLTVGSQTGNDIGERDKITENPVSTGEKNAAT = 308000
2) ICOSL-Fc N52M/N57W/Q100P (Fc fusion) DTQEKEVRAMVGSDVELSCACPEGSRFDLNDVYVYWQTSESKTVVTYHIPQMSSLEWVDSRYRNRALMSPAGMLRGDFSLRLFNVTPQDEQKFHCLVLSPSLGFQEVLSVEVTLHVAANFSVPVVSAPHSPSQDELTFTCTSINGYPRPNVYWINKTDNSLLDQALQNDTVFLNMRGLYDVVSVLRIARTPSVNIGCCIENVLLQQNLTVGSQTGNDIGERDKITENPVSTGEKNAAT = 322000

Here is another binder to look at.
# MFI lookup, item ICOSL-Fc N52T/N57H/Q100S (Fc fusion) DTQEKEVRAMVGSDVELSCACPEGSRFDLNDVYVYWQTSESKTVVTYHIPQTSSLEHVDSRYRNRALMSPAGMLRGDFSLRLFNVTPQDEQKFHCLVLSSSLGFQEVLSVEVTLHVAANFSVPVVSAPHSPSQDELTFTCTSINGYPRPNVYWINKTDNSLLDQALQNDTVFLNMRGLYDVVSVLRIARTPSVNIGCCIENVLLQQNLTVGSQTGNDIGERDKITENPVSTGEKNAAT
259000
